testDetails: in vitro
Design: species or system HB2, HEK293
particulars: human, ccd841 cells
Assign a class from recorded viability at 48 h, 10 µM; defined classes: low = under 60%, medium = from 60% up to 90%, high = 90% and over

>  <compound>
C=CC(=O)N1CCN(C)CC1

>  <answerLabel>
high

$$$$

Q: Looking at O=C(CCl)Nc1ccccc1N1CCCC1 , which class would you pick?
Result: high

Q: Looking at C=CC(=O)Nc1cc(F)ccc1C , which class would you pick?
Result: high

###

Listed here are compounds together with their documented viability at 48 h, 10 µM.
testDetails: in vitro
Set-up: species or system HB2, HEK293
particulars: human, ccd841 cells
Write the answer as a number in %, unit excluded.

>  <compound>
CNC(=O)NC(=O)CCl

>  <viability at 48 h, 10 µM (%)>
94.3

$$$$
>  <compound>
O=C(CCl)Nc1nc(-c2ccc(F)c(F)c2)cs1

>  <viability at 48 h, 10 µM (%)>
76.5

$$$$
>  <compound>
N#CC(c1ccccc1)N1CCN(C(=O)CCl)CC1 (centres unmarked)

>  <viability at 48 h, 10 µM (%)>
66.2

$$$$
>  <compound>
O=C(CCl)NC(=O)Nc1ccc2c(c1)OCCO2

>  <viability at 48 h, 10 µM (%)>
83.6

$$$$
>  <compound>
CC(C)c1ccc(NC(=O)CCl)cc1

>  <viability at 48 h, 10 µM (%)>
40.4

$$$$

Q: Give its viability at 48 h, 10 µM value. Item: CCc1sc(C(=O)NNC(=O)CCl)cc1C
Result: 68.3

Q: Give its viability at 48 h, 10 µM value. Item: CC(NC(=O)CCl)c1ccc(Cl)c(Cl)c1 (centres unmarked)
Result: 58.1

Q: Give its viability at 48 h, 10 µM value. Item: CC1CCCC(NC(=O)NC(=O)CCl)C1C (centres unmarked)
Result: 71

###

testedTarget: OTUB2 (OTUB2A) (Homo sapiens, UniProt Q96DC9)
Construct: full length residues 1-234, E. coli BL21(DE3)-R3, His tag removed by TEV, construct 27312 Da
Sequence (Q96DC9 whole entry, the tested form may be a part): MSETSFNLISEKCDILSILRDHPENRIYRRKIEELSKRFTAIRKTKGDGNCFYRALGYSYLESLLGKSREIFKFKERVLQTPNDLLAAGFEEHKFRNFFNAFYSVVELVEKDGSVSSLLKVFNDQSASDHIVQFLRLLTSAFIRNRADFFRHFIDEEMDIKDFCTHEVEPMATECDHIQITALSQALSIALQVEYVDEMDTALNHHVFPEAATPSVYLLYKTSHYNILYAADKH
Parameters: Intact protein LC/MS covalent labelling, fragments in pools of five, 200 uM each, 4 °C
particulars: 24 h, 4 °C, pool of five; 200 µM; covalent
Listed here are compounds together with their documented OTUB2.
Enter the number alone.

>  <compound>
Cc1c(C#N)sc(NC(=O)CCl)c1C#N

>  <testReadout>
OTUB2

>  <reported>
0

$$$$

Q: Give its OTUB2 value. Item: O=C(CCl)Nc1nnc(-c2ccccc2)o1
Result: 0.08

###

Listed here are molecules together with their documented NUDT7.
testedTarget: NUDT7 (Homo sapiens, UniProt P0C024)
Construct: residues 14-235, E. coli, pNIC28-Bsa4, N-terminal His6 tag removed by TEV, construct 26672 Da
Sequence (P0C024 14-235): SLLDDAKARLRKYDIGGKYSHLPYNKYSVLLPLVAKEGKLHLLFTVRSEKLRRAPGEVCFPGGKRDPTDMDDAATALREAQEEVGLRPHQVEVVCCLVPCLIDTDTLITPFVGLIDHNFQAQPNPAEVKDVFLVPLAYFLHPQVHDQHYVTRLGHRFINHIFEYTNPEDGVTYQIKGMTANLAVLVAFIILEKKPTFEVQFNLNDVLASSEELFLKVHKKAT
Design: Intact protein LC/MS covalent labelling, fragments in pools of five, 200 uM each, 4 °C
particulars: 24 h, 4 °C, pool of five; 200 µM; covalent
Enter the number alone.

In the examples that follow, each entry is paired with its recorded NUDT7.
>  <smilesInput>
C=CC(=O)N1CCn2nc(C)nc2C1

>  <testedTarget>
NUDT7 (Homo sapiens, UniProt P0C024)

>  <testReadout>
NUDT7

>  <reported>
0

$$$$
>  <smilesInput>
CN(Cc1cccs1)C(=O)CCl

>  <testedTarget>
NUDT7 (Homo sapiens, UniProt P0C024)

>  <testReadout>
NUDT7

>  <reported>
0.17

$$$$
>  <smilesInput>
C=CC(=O)N1CCN(C)CC1

>  <testedTarget>
NUDT7 (Homo sapiens, UniProt P0C024)

>  <testReadout>
NUDT7

>  <reported>
0

$$$$

Q: Give its NUDT7 value. Item: O=C(CCl)N1CCc2ccccc21
Result: 0

Q: Give its NUDT7 value. Item: O=C(CCl)Nc1nnc(CC(F)(F)F)o1
Result: 0
